# test.summary: Serum vorinostat pharmacokinetics
# Type: in vivo, human
# experimental.context: human, serum, oral, 200 mg, tmax, DL2, average
observed.property: Tmax
Just so you know, I need the unit written after the number.

IN: Query: Tmax; subject: O=C(CCCCCCC(=O)Nc1ccccc1)NO [vorinostat, suberoylanilide hydroxamic acid]
OUT: 3.5 h

* * *

# test.summary: Serum vorinostat pharmacokinetics
# Type: in vivo, human
# experimental.context: human, serum, oral, 200 mg, tmax, less than 65 years of age cohort, average
observed.property: Tmax
Respond with a number, then the unit of measure.

IN: Suppose we examine the compound O=C(CCCCCCC(=O)Nc1ccccc1)NO [vorinostat, suberoylanilide hydroxamic acid] ; what Tmax value has been reported?
OUT: 3.3 h
